test system: KB (human oral epidermoid carcinoma cell line); test: MTT antiproliferative assay, KB; format: cell-based; details: Homo sapiens; MTT, 72 h
metric: pIC50
Notebook: values listed as pIC50 are -log10 of the concentration (mol/L).

Reference set (3 entries):
Cc1ccc2oc(=O)c(C(Cl)=CC=O)cc2c1 [Compound 5f]    5.65
O=CC=C(Cl)c1cc2ccccc2oc1=O [Compound 5a]    5.89
O=CC=C(Cl)c1cc2ccc(Br)cc2oc1=O [Compound 5d]    5.95

Note: attention shifts to another entry.
INPUT: Write down measured pIC50 (KB (human oral epidermoid carcinoma cell line)) for this molecule. CCCOc1ccc2cc(C(Cl)=CC=O)c(=O)oc2c1 [Compound 6c]
OUTPUT: 5.34

====

melting point overview

Examples from the recorded data:
O=CC=C(Cl)c1cc2cc(Br)ccc2oc1=O [Compound 5g]    199 to 201 °C
O=CC=C(Cl)c1cc2cc(O)ccc2oc1=O [Compound 5e]    250 to 252 °C
COc1ccc2cc(C(Cl)=CC=O)c(=O)oc2c1 [Compound 6a]    202 to 203 °C
O=CC=C(Cl)c1cc2ccccc2oc1=O [Compound 5a]    167 to 169 °C

INPUT: Note down melting point recorded for O=CC=C(Cl)c1cc2ccc(Br)cc2oc1=O [Compound 5d]
OUTPUT: 182 to 183 °C

INPUT: Fill in reported melting point for this entry: CCN(CC)c1ccc2cc(C(Cl)=CC=O)c(=O)oc2c1 [Compound 5c]
OUTPUT: 206 to 208 °C

INPUT: Consider the compound CC(C)Oc1ccc2cc(C(Cl)=CC=O)c(=O)oc2c1 [Compound 6d] and give its recorded melting point.
OUTPUT: 149 to 151 °C

INPUT: Given O=CC=C(Cl)c1cc2ccc(OCc3ccccc3)cc2oc1=O [Compound 6e] , respond with its melting point.
OUTPUT: 223 to 225 °C

INPUT: Read the entry O=CC=C(Cl)c1cc2ccc(OCc3ccc([N+](=O)[O-])cc3)cc2oc1=O [Compound 6f] and write its reported melting point.
OUTPUT: 250 to 252 °C

INPUT: Could you please provide reported melting point for O=CC=C(Cl)c1cc2ccc(OCc3cccc(Br)c3)cc2oc1=O [Compound 6g] ? Thanks!
OUTPUT: 217 to 219 °C

INPUT: Answer with the recorded melting point of O=CC=C(Cl)c1cc2ccc(O)cc2oc1=O [Compound 5b] only.
OUTPUT: 204 to 205 °C

INPUT: Return melting point (reported value) for this compound: CCCOc1ccc2cc(C(Cl)=CC=O)c(=O)oc2c1 [Compound 6c]
OUTPUT: 150 to 152 °C

INPUT: Could you please provide reported melting point for Cc1ccc2oc(=O)c(C(Cl)=CC=O)cc2c1 [Compound 5f] ? Thanks!
OUTPUT: 179 to 181 °C

INPUT: Answer with reported melting point of CCOc1ccc2cc(C(Cl)=CC=O)c(=O)oc2c1 [Compound 6b]
OUTPUT: 195 to 196 °C

====

tested on: LO2 (human normal hepatocytes); experiment: MTT antiproliferative assay, LO2 normal cells; format: cell-based; conditions: Hepatocyte, 72 h
Parameter: IC50. Scope: all listed entries.
Report the figure in µM without appending any unit label.

Study these solved cases before continuing.
COc1ccc2cc(C(Cl)=CC=O)c(=O)oc2c1 [Compound 6a]    61
O=CC=C(Cl)c1cc2cc(Br)ccc2oc1=O [Compound 5g]    66.4
O=CC=C(Cl)c1cc2cc(O)ccc2oc1=O [Compound 5e]    14.1
CCCOc1ccc2cc(C(Cl)=CC=O)c(=O)oc2c1 [Compound 6c]    43.5
CC(C)Oc1ccc2cc(C(Cl)=CC=O)c(=O)oc2c1 [Compound 6d]    33.3

Read the next record carefully.
INPUT: Note down IC50 recorded for O=CC=C(Cl)c1cc2ccc(OCc3ccccc3)cc2oc1=O [Compound 6e]
OUTPUT: 50.1
